B1: Caulobacter ParB omega fusion; a variant is named by its letters at X, in order, B8GW30 (parent)
chain: MESVVVGEPGMSEGRRGLGRGLSALLGEVDAAPAQAPGEQLGGSREAPIEILQRNPDQPRRTFREEDLEDLSNSIREKGVLQPILVRPSPDTAGEYQIVAGERAWRAAQRAGLKTVPIMVRELDDLAVLEIGIIENVQRADLNVLEEALSYKVLMEKFERTQENIAQTIGKSXSHVANXMRLLXLPDEVQSYLVSGELTAXHARAIAAAADPVALAKQIIEGGLSVRETEALARKAPNLSAGKSKGGRPPRVKDTDTQALESDLSSVLGLDVSIDHRGSTGTLTITYATLEQLDDLCNRLTRGI

- Variants of: B1
- Assay remarks: one-hybrid fitness for binding NBS DNA (the Noc-binding site; scaled: cognate 1, non-cognate 0); higher = stronger binding
- Assay setup: with NBS DNA site
Over roughly 81,000 sequences, “one-hybrid fitness for binding NBS DNA” has its median near -0.1; the highest 2% begin near 0.36. The entries come from a sample that favours the highest values as a whole.
As shown below, each of these variants has a reported one-hybrid fitness for binding NBS DNA value.

response.value for RKAH (field: one-hybrid fitness for binding NBS DNA) = 0.322
